Reference source: the supplement of paper PMC7877785

- Experiment Description: self-splicing fitness, log relative to wild type (ln ratio); higher = more splicing; Tetrahymena group I intron in knt gene, E. coli kanamycin selection, DiMSum; sequences stand for … in CUCUCU…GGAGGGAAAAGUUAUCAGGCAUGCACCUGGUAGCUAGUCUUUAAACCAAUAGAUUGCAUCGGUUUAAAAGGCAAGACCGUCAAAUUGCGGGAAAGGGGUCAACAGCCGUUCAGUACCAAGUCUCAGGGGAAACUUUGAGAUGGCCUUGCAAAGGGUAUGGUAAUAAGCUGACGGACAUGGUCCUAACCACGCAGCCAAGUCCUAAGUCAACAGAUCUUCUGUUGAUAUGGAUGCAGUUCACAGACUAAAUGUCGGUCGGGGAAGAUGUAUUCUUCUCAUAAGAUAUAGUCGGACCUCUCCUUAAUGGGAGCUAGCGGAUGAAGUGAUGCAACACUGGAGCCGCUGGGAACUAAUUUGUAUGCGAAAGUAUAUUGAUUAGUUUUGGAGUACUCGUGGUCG;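 note: selection with 25 µg/mL kanamycin versus none on LB agar overnight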
- Details: 37 °C
Short version: self-splicing fitness (ln) at least -1 is 1 (yes), less is 0 (no).

Check this sequence for self-splicing fitness (ln) at or above -1: GUUGAGCAAUAUUACGAGAG
0 (no)

Reported self-splicing fitness (ln) at or above -1? UAGUAGCAAUAUUACGCUCC
1 (yes)

API: above_or_equal(metric=self-splicing fitness (ln), cutoff=-1) for item UUCGAGCAAUAUUACGGUUA
0 (no)

Exam item: decide whether the reported self-splicing fitness (ln) for GCUAAGCAAUAUUACGGAUG is at least -1.
1 (yes)

hey, is self-splicing fitness (ln) for this one >= -1? GACCAGCAAUAUUACGACUC
1 (yes)

Has GAGCAGCAAUAUUACGCUAC a recorded self-splicing fitness (ln) greater than or equal to -1?
0 (no)

Decide: self-splicing fitness (ln) of GAAAAGCAAUAUUACGCGAG >= -1?
1 (yes)

Is the recorded value of self-splicing fitness (ln) equal to or greater than -1 for this sequence? AGUAAGCAAUAUUACGGCGA
1 (yes)

# bool: self-splicing fitness (ln) of AAUUAGCAAUAUUACGCUAA >= -1
0 (no)

Entry UUGUAGCAAUAUUACGCGAU : is its self-splicing fitness (ln) no less than -1?
0 (no)

Please tell me: is the sequence CAUAAGCAAUAUUACGACAG at or over -1 in terms of self-splicing fitness (ln)?
1 (yes)

# bool: self-splicing fitness (ln) of CAUAAGCAAUAUUACGCCCA >= -1
0 (no)

Answer whether self-splicing fitness (ln) of GCAAAGCAAUAUUACGGAGU is greater than or equal to -1.
0 (no)

hey, is self-splicing fitness (ln) for this one >= -1? UGCCAGCAAUAUUACGUCAC
0 (no)

----------
- Experiment Description: self-splicing fitness, log relative to wild type (ln ratio); higher = more splicing; Tetrahymena group I intron in knt gene, E. coli kanamycin selection, DiMSum; sequences stand for … in CUCUCU…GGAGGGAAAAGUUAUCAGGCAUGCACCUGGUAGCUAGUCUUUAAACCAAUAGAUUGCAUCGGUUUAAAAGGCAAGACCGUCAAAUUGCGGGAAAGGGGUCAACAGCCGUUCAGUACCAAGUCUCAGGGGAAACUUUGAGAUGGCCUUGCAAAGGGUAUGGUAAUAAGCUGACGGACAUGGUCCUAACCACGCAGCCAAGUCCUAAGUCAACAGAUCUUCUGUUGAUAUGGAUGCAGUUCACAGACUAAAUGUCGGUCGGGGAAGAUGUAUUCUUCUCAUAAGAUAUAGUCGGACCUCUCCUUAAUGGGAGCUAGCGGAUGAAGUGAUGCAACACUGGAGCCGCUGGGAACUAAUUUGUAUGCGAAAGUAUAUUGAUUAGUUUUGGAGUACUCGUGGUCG
- Details: 37 °C
Would you please tag the item 1 when its self-splicing fitness (ln) is -1 or above, and 0 when it is below?

Does AAGCAGCAAUAUUACGAUGG have a reported self-splicing fitness (ln) of at least -1?
0

Assess whether reported self-splicing fitness (ln) for CGGCAGCAAUAUUACGGAGU sits at -1 or higher.
0

Is the recorded value of self-splicing fitness (ln) equal to or greater than -1 for this sequence? UAAGAGCAAUAUUACGCGGA
0

Check if self-splicing fitness (ln) >= -1 (inclusive). Item: GGGUAGCAAUAUUACGGUUG
1

Would you say AUCAAGCAAUAUUACGAGAC shows self-splicing fitness (ln) at minimum -1?
0

Item AAUGAGCAAUAUUACGACUG with self-splicing fitness (ln) of -1 or above?
1

Check this sequence for self-splicing fitness (ln) at or above -1: AGGAAGCAAUAUUACGAACC
1

Is self-splicing fitness (ln) for GAGGAGCAAUAUUACGAUUA at or above -1?
0

hey, is self-splicing fitness (ln) for this one >= -1? ACCAAGCAAUAUUACGGACC
1

Could you verify whether the entry CUAAAGCAAUAUUACGACGA shows self-splicing fitness (ln) of no less than -1?
1

Form field: self-splicing fitness (ln) at least -1? Entry: UCUAAGCAAUAUUACGGUUC
0

API: above_or_equal(metric=self-splicing fitness (ln), cutoff=-1) for item UAACAGCAAUAUUACGAGCG
1

Is it the case that UGGUAGCAAUAUUACGUAGC has self-splicing fitness (ln) reaching or exceeding -1?
1

Please check the record AAGUAGCAAUAUUACGCUUG and state if its self-splicing fitness (ln) is at or above -1.
1

Could you verify whether the entry CCUCAGCAAUAUUACGAGGG shows self-splicing fitness (ln) of no less than -1?
0

Decide: self-splicing fitness (ln) of CAAAAGCAAUAUUACGGCAG >= -1?
1

Tell me whether self-splicing fitness (ln) is at least -1 here: CAGCAGCAAUAUUACGUGAC
0

Kindly determine if self-splicing fitness (ln) recorded for GGUCAGCAAUAUUACGUUCG is above or exactly -1.
1

In plain terms: is recorded self-splicing fitness (ln) at least -1 for GAGAAGCAAUAUUACGAAGA ?
0

Check the entry CGCCAGCAAUAUUACGCUGC : does self-splicing fitness (ln) equal or exceed -1?
0

Say whether CCGGAGCAAUAUUACGCAGU shows self-splicing fitness (ln) of -1 or more.
0

hey, is self-splicing fitness (ln) for this one >= -1? AUGCAGCAAUAUUACGCUUC
0

Does self-splicing fitness (ln) meet or surpass -1 for UCGGAGCAAUAUUACGUUAU ?
0

Does the sequence CUCCAGCAAUAUUACGAACU have recorded self-splicing fitness (ln) that is -1 or more?
0
